Assay: Antioxidant activity assessed as FRAP values at 25 ug/ml incubated at 37 degC for 5 mins by FeSO4.7H2O calibration curve based method
Assay type: physicochemical
Please note: t applies when Activity is 200 µmol/L or greater, and f applies otherwise.

IN: Quick check, Activity >= 200 µmol/L? C/C(=C/O[C@@H]1O[C@H](COC(=O)c2cc(O)c(O)c(O)c2)[C@@H](O)[C@H](O)[C@H]1O)C(=O)O
OUT: f

IN: Reported Activity at or above 200 µmol/L? O=C(OC[C@H]1O[C@@H](Oc2cc(O)c(C(=O)c3ccccc3)c(O)c2)[C@H](O)[C@@H](O)[C@@H]1O)c1cc(O)c(O)c(O)c1
OUT: f

IN: # bool: Activity of Cc1c(O)c(C(=O)c2ccccc2)c(O)c(C)c1O[C@@H]1O[C@H](COC(=O)c2cc(O)c(O)c(O)c2)[C@@H](O)[C@H](O)[C@H]1O >= 200 µmol/L
OUT: f

IN: Is Activity at least 200 µmol/L? Consider O=c1c(O[C@@H]2O[C@@H](CO)[C@H](O)[C@H]2O)c(-c2ccc(O)c(O)c2)oc2cc(O)cc(O)c12
OUT: t

Further cases:
IN: For this molecule, is measured Activity 200 µmol/L or higher? O=c1c(O[C@@H]2OC[C@H](O)[C@H](O)[C@H]2O)c(-c2ccc(O)c(O)c2)oc2cc(O)cc(O)c12
OUT: f

IN: Test whether the molecule O=C(OC[C@H]1O[C@@H](Oc2cc(-c3ccccc3)oc(=O)c2)[C@H](O)[C@@H](O)[C@@H]1O)c1cc(O)c(O)c(O)c1 records Activity of 200 µmol/L or higher.
OUT: f

IN: Reported Activity reaches at least 200 µmol/L for O=c1c(O)c(-c2ccc(O)c(O)c2)oc2cc(O)cc(O)c12 ?
OUT: t

###

Experiment: Antioxidant activity assessed as FRAP values at 100 ug/ml incubated at 37 degC for 5 mins by FeSO4.7H2O calibration curve based method
Assay type: physicochemical
Measurement Name: Activity
Please make sure the unit comes right after the number.

Reference set (5 entries):
IN: In one line, give reported Activity of the entry O=C(OC[C@H]1O[C@@H](Oc2cc(-c3ccccc3)oc(=O)c2)[C@H](O)[C@@H](O)[C@@H]1O)c1cc(O)c(O)c(O)c1 .
OUT: 386.38 µmol/L

IN: Indicate the recorded Activity value for this compound: O=c1c(O[C@@H]2OC[C@H](O)[C@H](O)[C@H]2O)c(-c2ccc(O)c(O)c2)oc2cc(O)cc(O)c12
OUT: 346.45 µmol/L

IN: Find the measured Activity of O=c1c(O[C@@H]2O[C@H](CO)[C@H](O)[C@H](O)[C@H]2O)c(-c2ccc(O)c(O)c2)oc2cc(O)cc(O)c12 [HYPEROSIDE] and report it.
OUT: 329.68 µmol/L

IN: Annotate the compound O=C(OC[C@H]1O[C@@H](Oc2cc(O)c(C(=O)c3ccccc3)c(O)c2)[C@H](O)[C@@H](O)[C@@H]1O)c1cc(O)c(O)c(O)c1 with its measured Activity.
OUT: 174.6 µmol/L

IN: Assign Activity to the following record: C/C(=C/O[C@@H]1O[C@H](COC(=O)c2cc(O)c(O)c(O)c2)[C@@H](O)[C@H](O)[C@H]1O)C(=O)O
OUT: 413.94 µmol/L

New cases:
IN: Kindly indicate its recorded Activity. Item: Cc1c(O)c(C(=O)c2ccccc2)c(O)c(C)c1O[C@@H]1O[C@H](COC(=O)c2cc(O)c(O)c(O)c2)[C@@H](O)[C@H](O)[C@H]1O
OUT: 341.94 µmol/L

IN: Could you please provide reported Activity for O=C1O[C@H]([C@@H](O)CO)C(O)=C1O ? Thanks!
OUT: 442.43 µmol/L

IN: Note Activity for the compound shown: Cc1c(O)c(C)c(O[C@@H]2O[C@H](CO)[C@@H](O)[C@H](O)[C@H]2O)c(C(=O)c2ccccc2)c1O
OUT: 46.37 µmol/L

IN: Using known records, supply Activity for O=c1c(O)c(-c2ccc(O)c(O)c2)oc2cc(O)cc(O)c12
OUT: 401.27 µmol/L

IN: Dear colleague, please send me the reported Activity for O=c1c(O[C@@H]2O[C@@H](CO)[C@H](O)[C@H]2O)c(-c2ccc(O)c(O)c2)oc2cc(O)cc(O)c12 when you can.
OUT: 324.58 µmol/L

###

Assay: Antioxidant activity assessed as ABTS radical scavenging activity after 15 mins
Format: physicochemical
Consider the following compounds and their measured IC50 readings.
Number first, unit second: that is the form wanted.

Below are worked cases with known answers.
IN: Specify measured IC50 for O=c1c(O[C@@H]2O[C@@H](CO)[C@H](O)[C@H]2O)c(-c2ccc(O)c(O)c2)oc2cc(O)cc(O)c12 .
OUT: 6.9 µg/mL

IN: Look up and report measured IC50 for this entry: O=c1c(O)c(-c2ccc(O)c(O)c2)oc2cc(O)cc(O)c12
OUT: 4.4 µg/mL

IN: Using known records, supply IC50 for O=C(OC[C@H]1O[C@@H](Oc2cc(O)c(C(=O)c3ccccc3)c(O)c2)[C@H](O)[C@@H](O)[C@@H]1O)c1cc(O)c(O)c(O)c1
OUT: 13.63 µg/mL

New cases:
IN: Give the reported IC50 for this compound. O=C(OC[C@H]1O[C@@H](Oc2cc(-c3ccccc3)oc(=O)c2)[C@H](O)[C@@H](O)[C@@H]1O)c1cc(O)c(O)c(O)c1
OUT: 5.47 µg/mL

###

Test: Antioxidant activity assessed as FRAP values at 50 ug/ml incubated at 37 degC for 5 mins by FeSO4.7H2O calibration curve based method
Type: physicochemical
Classification field: Y = Activity at or over 200 µmol/L; N = Activity under 200 µmol/L.

Solved cases below.
IN: Does the reported Activity for O=c1c(O[C@@H]2OC[C@H](O)[C@H](O)[C@H]2O)c(-c2ccc(O)c(O)c2)oc2cc(O)cc(O)c12 [GUAJAVERIN] fall at or above the 200 µmol/L mark?
OUT: Y

IN: Is Activity for Cc1c(O)c(C)c(O[C@@H]2O[C@H](CO)[C@@H](O)[C@H](O)[C@H]2O)c(C(=O)c2ccccc2)c1O at or above 200 µmol/L?
OUT: N

IN: Threshold query (Activity >= 200 µmol/L) on Cc1c(O)c(C(=O)c2ccccc2)c(O)c(C)c1O[C@@H]1O[C@H](COC(=O)c2cc(O)c(O)c(O)c2)[C@@H](O)[C@H](O)[C@H]1O
OUT: N

Here is another molecule to look at.
IN: Please tell me: is the molecule O=c1c(O)c(-c2ccc(O)c(O)c2)oc2cc(O)cc(O)c12 [QUERCETIN] at or over 200 µmol/L in terms of Activity?
OUT: Y

###

Assay: Antioxidant activity assessed as ABTS radical scavenging activity after 15 mins
Format: physicochemical
Let's look at some molecules and their measured IC50.
Numeric only. Scale: µg/mL

Guide cases for IC50, answers given:
IN: Assign IC50 to the following record: O=C1O[C@H]([C@@H](O)CO)C(O)=C1O [ASCORBIC ACID]
OUT: 8.53

IN: Provide one value: measured IC50 of Cc1c(O)cc(O[C@@H]2O[C@H](CO)[C@@H](O)[C@H](O)[C@H]2O)c(C(=O)c2ccccc2)c1O
OUT: 29.27

IN: Provide IC50 value for the following molecule: O=c1c(O[C@@H]2O[C@H](CO)[C@H](O)[C@H](O)[C@H]2O)c(-c2ccc(O)c(O)c2)oc2cc(O)cc(O)c12 [HYPEROSIDE]
OUT: 10.57

IN: Tell us which IC50 value is on record for C/C(=C/O[C@@H]1O[C@H](COC(=O)c2cc(O)c(O)c(O)c2)[C@@H](O)[C@H](O)[C@H]1O)C(=O)O
OUT: 5.93

IN: Supply recorded IC50 for O=c1c(O[C@@H]2OC[C@H](O)[C@H](O)[C@H]2O)c(-c2ccc(O)c(O)c2)oc2cc(O)cc(O)c12 [GUAJAVERIN] here.
OUT: 6.7

Continuing:
IN: Specify reported IC50 for the molecule shown: Cc1c(O)c(C)c(O[C@@H]2O[C@H](CO)[C@@H](O)[C@H](O)[C@H]2O)c(C(=O)c2ccccc2)c1O
OUT: 32.97

IN: Give the measured IC50 for Cc1c(O)c(C(=O)c2ccccc2)c(O)c(C)c1O[C@@H]1O[C@H](COC(=O)c2cc(O)c(O)c(O)c2)[C@@H](O)[C@H](O)[C@H]1O
OUT: 8.3

###

Measured Activity of individual entries
Assay: Antioxidant activity assessed as FRAP values at 12.5 ug/ml incubated at 37 degC for 5 mins by FeSO4.7H2O calibration curve based method
Assay type: physicochemical
Write the number in µmol/L without appending the unit.

Sample records with Activity:
IN: Respond only with Activity recorded for Cc1c(O)c(C(=O)c2ccccc2)c(O)c(C)c1O[C@@H]1O[C@H](COC(=O)c2cc(O)c(O)c(O)c2)[C@@H](O)[C@H](O)[C@H]1O
OUT: 48.3

IN: Note down Activity recorded for C/C(=C/O[C@@H]1O[C@H](COC(=O)c2cc(O)c(O)c(O)c2)[C@@H](O)[C@H](O)[C@H]1O)C(=O)O
OUT: 70.64

IN: Assign Activity to the following record: O=c1c(O[C@@H]2OC[C@H](O)[C@H](O)[C@H]2O)c(-c2ccc(O)c(O)c2)oc2cc(O)cc(O)c12 [GUAJAVERIN]
OUT: 57.21

IN: # return recorded Activity for input O=c1c(O)c(-c2ccc(O)c(O)c2)oc2cc(O)cc(O)c12 [QUERCETIN]
OUT: 333.26

IN: Answer with the recorded Activity for the compound listed here: Cc1c(O)c(C)c(O[C@@H]2O[C@H](CO)[C@@H](O)[C@H](O)[C@H]2O)c(C(=O)c2ccccc2)c1O
OUT: 11.54

IN: Give recorded Activity. O=c1c(O[C@@H]2O[C@H](CO)[C@H](O)[C@H](O)[C@H]2O)c(-c2ccc(O)c(O)c2)oc2cc(O)cc(O)c12 [HYPEROSIDE]
OUT: 68.06

IN: Identify measured Activity corresponding to O=C(OC[C@H]1O[C@@H](Oc2cc(-c3ccccc3)oc(=O)c2)[C@H](O)[C@@H](O)[C@@H]1O)c1cc(O)c(O)c(O)c1
OUT: 91.28

IN: Name the recorded Activity of the item O=C1O[C@H]([C@@H](O)CO)C(O)=C1O [ASCORBIC ACID] in your answer.
OUT: 149.97

***
IN: Identify measured Activity associated with O=C(OC[C@H]1O[C@@H](Oc2cc(O)c(C(=O)c3ccccc3)c(O)c2)[C@H](O)[C@@H](O)[C@@H]1O)c1cc(O)c(O)c(O)c1
OUT: 18.46

IN: Report Activity, nothing else, for this compound: O=c1c(O[C@@H]2O[C@@H](CO)[C@H](O)[C@H]2O)c(-c2ccc(O)c(O)c2)oc2cc(O)cc(O)c12 [AVICULARIN]
OUT: 123.88

Reference for the values: ChEMBL document CHEMBL3400010
